# System: Pseudoalteromonas
# Protocol Summary: Induction of bacteriophage PM2 closed circular DNA unwinding assessed as drug per nucleic acid phosphate ratio at equivalence by viscometric analysis
Quantity Kind: Ratio
Answer with a number only.

Known Ratio results, listed for orientation:
{"Mol Smiles": "Cl.O.O=S(=O)(CCCCNc1c2ccccc2nc2ccccc12)Nc1ccc(Nc2c3ccccc3nc3ccccc23)cc1", "Observed Measurement": 0.066}
{"Mol Smiles": "Br.O=S(=O)(CCCCNc1ccnc2ccccc12)Nc1ccc(Nc2c3ccccc3nc3ccccc23)cc1", "Observed Measurement": 0.091}
{"Mol Smiles": "COc1cc(NS(=O)(=O)CCCCS(=O)(=O)Nc2ccc(Nc3c4ccccc4nc4ccccc34)c(OC)c2)ccc1Nc1c2ccccc2nc2ccccc12", "Observed Measurement": 0.041}

Okay, now this compound:
query: Any idea what its Ratio is? The compound is "COc1cc(NS(C)(=O)=O)ccc1Nc1c2ccccc2nc2ccccc12"
result: 0.082

###

# Tested on: Mus musculus
# Protocol Summary: Toxicity in ip dosed BDF1 mouse allografted with mouse P388 cells administered qd for 5 days
# Assay type: organism-based
# Condition Set: mouse, in vivo, 120 h
Quantity Kind: Activity (mg/kg/day)
Provide the reading as a plain figure in mg/kg/day.

{"Mol Smiles": "CCOc1cc(NS(C)(=O)=O)ccc1Nc1c2ccccc2nc2ccccc12", "Observed Measurement": 60}
{"Mol Smiles": "c1ccc2c(NCCCCCCCCNc3c4ccccc4nc4ccccc34)c3ccccc3nc2c1", "Observed Measurement": 2.5}

query: Any idea what its Activity is? The compound is "COc1cc(NS(=O)(=O)CCCS(=O)(=O)Nc2ccc(Nc3c4ccccc4nc4ccccc34)c(OC)c2)ccc1Nc1c2ccccc2nc2ccccc12.CS(=O)(=O)O.O"
result: 50

query: Any idea what its Activity is? The compound is "c1ccc2c(NCCCCCCCNc3c4ccccc4nc4ccccc34)c3ccccc3nc2c1"
result: 5

query: Any idea what its Activity is? The compound is "Cl.O.O=S(=O)(CCCCCNc1c2ccccc2nc2ccccc12)Nc1ccc(Nc2c3ccccc3nc3ccccc23)cc1"
result: 250

query: Any idea what its Activity is? The compound is "Cl.O.O=S(=O)(CCNc1c2ccccc2nc2ccccc12)Nc1ccc(Nc2c3ccccc3nc3ccccc23)cc1"
result: 60

query: Any idea what its Activity is? The compound is "c1ccc2c(NCCCCCCCCCCNc3c4ccccc4nc4ccccc34)c3ccccc3nc2c1"
result: 2.5

query: Any idea what its Activity is? The compound is "c1ccc2c(NCCCCCNc3c4ccccc4nc4ccccc34)c3ccccc3nc2c1"
result: 7.5

query: Any idea what its Activity is? The compound is "Cl.O.O=S(=O)(CCCNc1c2ccccc2nc2ccccc12)Nc1ccc(Nc2c3ccccc3nc3ccccc23)cc1"
result: 300

query: Any idea what its Activity is? The compound is "Cl.O.O=S(=O)(CCCCCNc1ccnc2ccccc12)Nc1ccc(Nc2c3ccccc3nc3ccccc23)cc1"
result: 200

query: Any idea what its Activity is? The compound is "Cl.O.O=S(=O)(CCCCCS(=O)(=O)Nc1ccc(Nc2c3ccccc3nc3ccccc23)cc1)Nc1ccc(Nc2c3ccccc3nc3ccccc23)cc1"
result: 210

query: Any idea what its Activity is? The compound is "Cl.O.O=S(=O)(CCNc1ncnc2ccccc12)Nc1ccc(Nc2c3ccccc3nc3ccccc23)cc1"
result: 100

###

# Organism: Bos taurus
# Protocol Summary: Displacement of ethidium bromide from calf thymus DNA by spectrofluorometric analysis
Record t whenever C50 is at 0.3 µM or higher; record f when lower.

Some solved cases for reference:
{"Mol Smiles": "Cl.O.c1ccc(OCCCCNc2ccnc3ccccc23)c(Nc2c3ccccc3nc3ccccc23)c1", "Assigned Label": "t"}
{"Mol Smiles": "O.c1ccc(OCCCNc2ccnc3ccccc23)c(Nc2c3ccccc3nc3ccccc23)c1", "Assigned Label": "t"}
{"Mol Smiles": "c1ccc2c(NCCCCCCNc3c4ccccc4nc4ccccc34)c3ccccc3nc2c1", "Assigned Label": "f"}
{"Mol Smiles": "Cl.O.O=S(=O)(CCCCNc1c2ccccc2nc2ccccc12)Nc1ccc(Nc2c3ccccc3nc3ccccc23)cc1", "Assigned Label": "f"}
{"Mol Smiles": "c1ccc2c(NCCCCCCCCCCNc3c4ccccc4nc4ccccc34)c3ccccc3nc2c1", "Assigned Label": "f"}
{"Mol Smiles": "Cl.c1ccc(OCCCCOc2ccccc2Nc2ccnc3ccccc23)c(Nc2ccnc3ccccc23)c1", "Assigned Label": "t"}

query: Textbook exercise: given the entry "Cl.O.c1ccc(OCCCCCCNc2ccnc3ccccc23)c(Nc2c3ccccc3nc3ccccc23)c1" , state whether its C50 is greater than or equal to 0.3 µM.
result: t

query: Textbook exercise: given the entry "Cl.O.O=S(=O)(CCCCCS(=O)(=O)Nc1ccc(Nc2c3ccccc3nc3ccccc23)cc1)Nc1ccc(Nc2c3ccccc3nc3ccccc23)cc1" , state whether its C50 is greater than or equal to 0.3 µM.
result: f

###

# Protocol Summary: Toxicity in ip dosed BDF1 mouse allografted with mouse L1210 cells administered qd for 5 days
# Type: organism-based
# Condition Set: BDF1, mouse, in vivo
Reported MTD at 120 h values are given for each entry in this list.
Please answer in the form of a number followed by its unit of measurement.

query: Any idea what its MTD at 120 h is? The molecule is "Cl.O.O=S(=O)(CCCS(=O)(=O)Nc1ccc(Nc2c3ccccc3nc3ccccc23)cc1)Nc1ccc(Nc2c3ccccc3nc3ccccc23)cc1"
result: 250 mg/kg/day

query: Any idea what its MTD at 120 h is? The molecule is "Br.O.O=S(=O)(CCNc1ccnc2ccccc12)Nc1ccc(Nc2c3ccccc3nc3ccccc23)cc1"
result: 90 mg/kg/day

query: Any idea what its MTD at 120 h is? The molecule is "CS(=O)(=O)Nc1ccc(Nc2ccnc3ccccc23)cc1"
result: 200 mg/kg/day

###

# System: Mus musculus
# Protocol Summary: Toxicity in ip dosed BDF1 mouse allografted with mouse L1210 cells administered qd for 5 days
# Format: organism-based
# Condition Set: mouse, in vivo, 120 h
Quantity Kind: Activity (mg/kg/day)
Provide the reading as a plain figure in mg/kg/day.

Known Activity results, listed for orientation:
{"Mol Smiles": "Cl.O.O=S(=O)(CCNc1ncnc2ccccc12)Nc1ccc(Nc2c3ccccc3nc3ccccc23)cc1", "Activity / mg/kg/day": 50}
{"Mol Smiles": "Cl.O.O=S(=O)(CCCCCNc1c2ccccc2nc2ccccc12)Nc1ccc(Nc2c3ccccc3nc3ccccc23)cc1", "Activity / mg/kg/day": 250}
{"Mol Smiles": "COc1cc(NS(=O)(=O)CCCS(=O)(=O)Nc2ccc(Nc3c4ccccc4nc4ccccc34)c(OC)c2)ccc1Nc1c2ccccc2nc2ccccc12.CS(=O)(=O)O.O", "Activity / mg/kg/day": 50}
{"Mol Smiles": "CCOc1cc(NS(C)(=O)=O)ccc1Nc1c2ccccc2nc2ccccc12", "Activity / mg/kg/day": 60}
{"Mol Smiles": "CS(=O)(=O)Nc1ccc(Nc2c3ccccc3nc3ccccc23)cc1", "Activity / mg/kg/day": 45}

query: Record "Br.O=S(=O)(CCCCNc1ccnc2ccccc12)Nc1ccc(Nc2c3ccccc3nc3ccccc23)cc1" : what is its Activity with Mus musculus?
result: 75

query: Record "Cl.O.O=S(=O)(CCCCCS(=O)(=O)Nc1ccc(Nc2c3ccccc3nc3ccccc23)cc1)Nc1ccc(Nc2c3ccccc3nc3ccccc23)cc1" : what is its Activity with Mus musculus?
result: 210

query: Record "COc1cc(NS(C)(=O)=O)ccc1Nc1c2ccccc2nc2ccccc12" : what is its Activity with Mus musculus?
result: 6.7

query: Record "COc1cc(NS(=O)(=O)CCCCCS(=O)(=O)Nc2ccc(Nc3c4ccccc4nc4ccccc34)c(OC)c2)ccc1Nc1c2ccccc2nc2ccccc12.CS(=O)(=O)O.O" : what is its Activity with Mus musculus?
result: 400

###

# Tested on: Mus musculus
# Protocol Summary: Toxicity in ip dosed BDF1 mouse allografted with mouse P388 cells administered qd for 5 days
# Assay type: organism-based
# Condition Set: mouse, in vivo, 120 h
Quantity Kind: Activity (mg/kg/day)
Provide the reading as a plain figure in mg/kg/day.

Known Activity results, listed for orientation:
{"Mol Smiles": "c1ccc2c(NCCCCCCNc3c4ccccc4nc4ccccc34)c3ccccc3nc2c1", "Measurement Units": "mg/kg/day", "Activity": 2.5}
{"Mol Smiles": "COc1cc(NS(=O)(=O)CCCCCS(=O)(=O)Nc2ccc(Nc3c4ccccc4nc4ccccc34)c(OC)c2)ccc1Nc1c2ccccc2nc2ccccc12.CS(=O)(=O)O.O", "Measurement Units": "mg/kg/day", "Activity": 400}
{"Mol Smiles": "Cl.O.O=S(=O)(CCCS(=O)(=O)Nc1ccc(Nc2c3ccccc3nc3ccccc23)cc1)Nc1ccc(Nc2c3ccccc3nc3ccccc23)cc1", "Measurement Units": "mg/kg/day", "Activity": 250}
{"Mol Smiles": "CS(=O)(=O)Nc1ccc(Nc2c3ccccc3nc3ccccc23)cc1", "Measurement Units": "mg/kg/day", "Activity": 45}
{"Mol Smiles": "COc1cc(NS(C)(=O)=O)ccc1Nc1c2ccccc2nc2ccccc12", "Measurement Units": "mg/kg/day", "Activity": 6.7}
{"Mol Smiles": "Br.O=S(=O)(CCCCNc1ccnc2ccccc12)Nc1ccc(Nc2c3ccccc3nc3ccccc23)cc1", "Measurement Units": "mg/kg/day", "Activity": 75}

query: Any idea what its Activity is? The compound is "Br.O.O=S(=O)(CCNc1ccnc2ccccc12)Nc1ccc(Nc2c3ccccc3nc3ccccc23)cc1"
result: 90
